Biological target: NAD-dependent protein deacetylase sirtuin-1 (Homo sapiens) (UniProt Q96EB6)
Sequence (whole entry): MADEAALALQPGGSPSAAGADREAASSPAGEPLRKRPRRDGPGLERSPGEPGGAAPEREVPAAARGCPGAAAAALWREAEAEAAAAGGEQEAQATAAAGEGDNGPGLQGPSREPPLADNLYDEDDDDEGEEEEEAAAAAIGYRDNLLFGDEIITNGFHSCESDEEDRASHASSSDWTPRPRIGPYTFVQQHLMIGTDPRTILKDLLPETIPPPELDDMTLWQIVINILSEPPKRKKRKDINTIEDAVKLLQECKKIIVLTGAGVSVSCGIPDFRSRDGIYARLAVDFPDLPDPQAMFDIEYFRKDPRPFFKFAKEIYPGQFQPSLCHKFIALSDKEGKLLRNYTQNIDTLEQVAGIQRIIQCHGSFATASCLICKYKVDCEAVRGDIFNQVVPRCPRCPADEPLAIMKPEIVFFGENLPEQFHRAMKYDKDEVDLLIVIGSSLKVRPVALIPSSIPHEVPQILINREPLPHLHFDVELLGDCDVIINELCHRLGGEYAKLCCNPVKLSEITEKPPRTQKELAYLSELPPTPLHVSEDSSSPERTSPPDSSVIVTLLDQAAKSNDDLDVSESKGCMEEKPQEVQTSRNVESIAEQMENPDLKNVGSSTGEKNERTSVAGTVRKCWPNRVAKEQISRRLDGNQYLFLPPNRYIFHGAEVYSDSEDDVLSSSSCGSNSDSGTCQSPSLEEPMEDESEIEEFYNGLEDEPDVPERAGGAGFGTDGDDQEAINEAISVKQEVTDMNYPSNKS
Assay: Inhibition of human recombinant SIRT1 assessed as deacetylation of N-acetyl lysine residue in p53 (317 to 320) at 10 uM after 30 mins by luciferase-mediated luminescence assay relative to control
The source made the active and inactive calls. The rule behind the calls is not given here.
observed-property: inhibition

Some compounds with recorded inhibition:
{"columns": ["record-smiles", "experimental-target", "inhibition"],
 "data": [
  ["CCCCCCCCn1c2c(c3cc(-c4cnc(N)nc4)ccc31)CN(CC)CC2", "NAD-dependent protein deacetylase sirtuin-1 (Homo sapiens) (UniProt Q96EB6)", "inactive"],
  ["CCCCCCCCn1c2c(c3cc(-c4cccc(C)c4)ccc31)CN(Cc1ccc(O)cc1)CC2", "NAD-dependent protein deacetylase sirtuin-1 (Homo sapiens) (UniProt Q96EB6)", "inactive"],
  ["CCCCCCCCn1c2c(c3cc(-c4cnc(N)nc4)ccc31)CN(C(C)C)CC2", "NAD-dependent protein deacetylase sirtuin-1 (Homo sapiens) (UniProt Q96EB6)", "15.3%"],
  ["CCCCn1c2c(c3cc(-c4ccc(S(C)(=O)=O)cc4)ccc31)CNCC2", "NAD-dependent protein deacetylase sirtuin-1 (Homo sapiens) (UniProt Q96EB6)", "inactive"],
  ["CCCCn1c2c(c3cc(-c4cccc(C)c4)ccc31)CNCC2", "NAD-dependent protein deacetylase sirtuin-1 (Homo sapiens) (UniProt Q96EB6)", "inactive"]
]}

What does the data say about its inhibition? Entry: CCCCCCCCn1c2c(c3cc(-c4ccc(S(C)(=O)=O)cc4)ccc31)CNCC2
48.5%

Can you check CCCCCCCCn1c2c(c3cc(-c4cnc(N)nc4)ccc31)CN(CCO)CC2 next?
inactive

Thanks! And CCCCCCCCn1c2c(c3cc(F)ccc31)CN(C)CC2 ?
inactive

Also CCCCCCCCn1c2c(c3cc(-c4cccc(C)c4)ccc31)CN(C)CC2 ?
66.4%

Please do the same for CCCCCCCCn1c2c(c3cc(-c4cnc(N)nc4)ccc31)CN(C(N)=O)CC2 as well.
inactive
